The measured values listed here are drawn from ChEMBL document CHEMBL1145167.

- systemTested: Growth factor receptor-bound protein 2 (Homo sapiens)
- Sequence (P62993 whole entry, looked up, the tested form may be a part): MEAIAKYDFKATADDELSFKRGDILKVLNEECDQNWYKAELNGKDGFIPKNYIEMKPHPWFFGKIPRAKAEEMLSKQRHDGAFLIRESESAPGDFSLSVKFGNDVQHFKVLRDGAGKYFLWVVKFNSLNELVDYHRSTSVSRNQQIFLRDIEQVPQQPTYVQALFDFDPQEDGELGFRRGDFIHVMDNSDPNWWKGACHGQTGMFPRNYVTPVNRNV
- testDetails: Steady-state affinity constant for Grb2 SH2 domain binding by surface plasmon resonance
Checkbox rule: Keq lower than 0.3 µM = Y; Keq not lower than 0.3 µM = N.

Worked examples, 4 compounds total:
NC(=O)C[C@H](NC(=O)C1(NC(=O)[C@H](Cc2ccc(CC(=O)O)cc2)NC(=O)C(=O)O)CCCCC1)C(=O)NCCCc1cccc2ccccc12; N
NC(=O)C[C@H](NC(=O)C1(NC(=O)[C@H](Cc2ccc(C(O)C(=O)O)cc2)NC(=O)C(=O)O)CCCCC1)C(=O)NCCCc1cccc2ccccc12 (stereo not given in full); N
NC(=O)C[C@H](NC(=O)C1(NC(=O)[C@H](Cc2ccc(C(O)(C(=O)O)C(=O)O)cc2)NC(=O)C(=O)O)CCCCC1)C(=O)NCCCc1cccc2ccccc12; Y
NC(=O)C[C@H](NC(=O)C1(NC(=O)[C@H](Cc2ccc(C(C(=O)O)C(=O)O)cc2)NC(=O)C(=O)O)CCCCC1)C(=O)NCCCc1cccc2ccccc12; Y

Moving on to the next compound.
q: Input CC(=O)N[C@@H](Cc1ccc(OP(=O)(O)O)cc1)C(=O)NC1(C(=O)N[C@@H](CC(N)=O)C(=O)NCCCc2cccc3ccccc23)CCCCC1 ; condition: Keq strictly below 0.3 µM. Does it hold?
a: Y
